targetUnderTest: h-TRPA1 (Homo sapiens (Human), UniProt O75762)
Sequence (O75762 whole entry): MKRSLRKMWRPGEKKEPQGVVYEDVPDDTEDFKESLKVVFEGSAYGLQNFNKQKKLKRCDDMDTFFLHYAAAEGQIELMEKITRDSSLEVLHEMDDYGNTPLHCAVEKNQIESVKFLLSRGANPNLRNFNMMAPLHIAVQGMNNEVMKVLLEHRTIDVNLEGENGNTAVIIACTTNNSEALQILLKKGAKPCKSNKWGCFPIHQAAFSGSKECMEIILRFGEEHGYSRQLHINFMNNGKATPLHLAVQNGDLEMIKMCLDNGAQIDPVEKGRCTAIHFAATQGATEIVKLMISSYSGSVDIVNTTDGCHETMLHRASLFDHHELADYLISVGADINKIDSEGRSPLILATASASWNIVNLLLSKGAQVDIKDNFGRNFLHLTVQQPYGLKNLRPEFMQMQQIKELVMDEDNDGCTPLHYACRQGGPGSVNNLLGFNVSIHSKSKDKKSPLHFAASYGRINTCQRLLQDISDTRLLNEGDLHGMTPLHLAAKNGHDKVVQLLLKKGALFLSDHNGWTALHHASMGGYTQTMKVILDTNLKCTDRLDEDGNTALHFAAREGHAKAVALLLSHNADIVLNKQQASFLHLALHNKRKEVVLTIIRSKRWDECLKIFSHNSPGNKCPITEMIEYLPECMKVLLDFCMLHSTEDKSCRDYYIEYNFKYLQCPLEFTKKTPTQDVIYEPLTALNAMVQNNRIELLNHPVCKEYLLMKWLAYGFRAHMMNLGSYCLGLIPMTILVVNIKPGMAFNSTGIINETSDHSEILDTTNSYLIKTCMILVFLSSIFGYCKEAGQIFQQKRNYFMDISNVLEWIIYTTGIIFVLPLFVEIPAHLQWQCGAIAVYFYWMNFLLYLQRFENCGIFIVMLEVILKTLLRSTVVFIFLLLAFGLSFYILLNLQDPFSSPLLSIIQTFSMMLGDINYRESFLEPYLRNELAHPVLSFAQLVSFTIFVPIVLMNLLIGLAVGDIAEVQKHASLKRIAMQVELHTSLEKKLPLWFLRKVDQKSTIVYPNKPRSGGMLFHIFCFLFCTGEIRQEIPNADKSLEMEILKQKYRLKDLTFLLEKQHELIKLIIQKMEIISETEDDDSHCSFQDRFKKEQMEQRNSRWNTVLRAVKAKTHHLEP
protocolDetails: Dose response calcium flux (FLIPR) assay, ChanTest hTRPA1-CHO stably transfected cell line
experimentalSetup: CHO-K1 Tet-on TRPA1 cells; calcium flux after cinnamaldehyde 100 uM agonist; 30 min compound preincubation
reportedProperty: IC50 (nM)

1) CC(C)N(CC(=O)NC[C@H]1CCCN(c2ccc(C(F)(F)F)cc2)C1)S(=O)(=O)c1ccc(F)cc1 ... 504
2) CC(C)N(CC(=O)NC[C@@H]1CCCN(c2ccc(C(F)(F)F)cc2)C1)S(=O)(=O)c1ccc(F)cc1 ... 307

I = CCN(CC(=O)NCC1CN(c2ccc(C(F)(F)F)cc2)CCO1)S(=O)(=O)c1ccc(F)cc1 (stereo not shown)
II = CCN(CC(=O)NCC1CCN(c2ccc(C(F)(F)F)cc2)C1)S(=O)(=O)c1ccc(F)cc1 (stereo not shown)
Which value of IC50 is smaller, the one for I or the one for II ? Answer with the label corresponding to your selection. I
(I: 226 nM, II: 634 nM)
